- experimentalDetails: water solubility
- Assay type: physicochemical
- studyConditions: water; at 20° C.
assayMetric: solubility (µg/mL)
Lab book: enter the figure in µg/mL, no units written.

Using the record for CCN(CC)C(=O)C(C)Oc1cccc2ccccc12 (racemic) [Racemic form of -(−)-N,N-diethyl-2-(α-naphthoxy)propionamide, N,N-diethyl-2-(α-naphthoxy)propionamide, reference compound] , report its solubility.
73
